- ASSAY_NOTES: mammalian cell cytotoxicity, dose response, cytotoxicity control (AID 434958);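 further: cells exposed to compound for 72 hours before readout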
- TEST_PARAMETERS: cytotoxicity counter-screen; series mostly up to 40 µM
About 400 (33%) of roughly 1,200 compounds were called active. The list is a sample of the results. Measured potencies and affinities stand elsewhere.
MEASURED_ATTRIBUTE: outcome

Below, each entry is followed by its recorded outcome result.
C=CCC(Nc1ccccc1)C12C=CC(O1)C(C(=O)OC)=C2C(=O)OC (centres undefined) :: inactive
Cc1ccc(C(=O)Nc2c(C)cc(C)c3cccnc23)cc1 :: inactive
Cc1cc(C)c(NC(=O)CC(C)(C)C)c(Cl)c1 :: inactive
Cc1ccccc1OCC(=O)Nc1ccccc1N1CCOCC1 :: inactive
Cc1c(C(=O)c2ccccc2)oc2ccc3ccccc3c12 :: inactive

Moving on to another compound below.
Can you look up the measured outcome of CC(=O)Nc1ccc(S(=O)(=O)Nc2cccc3cccnc23)cc1 for me?
inactive
